# IC50 per record follows
target: CDK2/Cyclin E complex (Homo sapiens); assay: CDK2/Cyclin E fluorescence-based microfluidic mobility shift assay (CDK2 Biochemical Caliper Assay); conditions: read-out: Biochemical CDK2/CyclinE Caliper IC50

### Prompt Answer with the recorded IC50 of CC(C)c1ccnnc1O[C@@H]1CC[C@H](c2cc(Nc3nccc4ncsc34)n[nH]2)C1 [Example 436] only.
### Response ≤ 0.1 µM

### Prompt Answer with the recorded IC50 of Cc1cc(CC(=O)Nc2cc([C@H]3C[C@H](COc4nnccc4C(C)C)C3)[nH]n2)on1 [Example 432] only.
### Response 0.1 to 0.25 µM

### Prompt Answer with the recorded IC50 of Cc1cc(CC(=O)Nc2cc([C@@H]3CC[C@H](NC(=O)c4ccccc4)C3)[nH]n2)on1 (single isomer, unassigned) [Example 132] only.
### Response 1 to 100 µM

### Prompt Answer with the recorded IC50 of COCc1cc2c(Nc3cc([C@H]4C[C@@H](OC(=O)NC5COC5)CO4)[nH]n3)nccn2n1 [Example 683] only.
### Response 0.25 to 1 µM
